These data points were gathered from patent US9833497B2.

Some substances, each annotated with its measured MIC P. aeruginosa.
- Tested on: Pseudomonas aeruginosa
- Experiment Summary: MIC against Gram-negative bacteria: Pseudomonas aeruginosa
- Assay type: cell-based
- Condition Set: 10 h cultivation at 37° C., 5×10^5 CFU/mL, two-fold serial dilution
Assay Endpoint: MIC P. aeruginosa (µg/mL)

* PRT1105 (EIDECWSQPCLNGATCQDALGAYFCDCAPGFLGDHCE; listed as Homo sapiens) | 50
* PRT1161 (DIDECASHPCKNGATCIDQPGNYFCQCVPPFKVVDGFSCL; listed as Homo sapiens) | 12.5
* PRT1090 (NNTRCLSNSCQNNSTCKDFSKDNDCSCSDTANNLDKDCD; listed as Homo sapiens) | 50
* PRT1152 (HASPCSLMKCGNGGTCIESGTSVYCNCTTGWKGSFCT; listed as Homo sapiens) | 12.5
* PRT1108 (DLNECNSNPCQSNGECVELSSEKQYGRITGLPSSFSYHEASGYVCICQPGFTGIHCE; listed as Homo sapiens) | 12.5
* PRT1111 (SEDMCSPDPCFNGGTCLVTWNDFHCTCPANFTGPTCA; listed as Homo sapiens) | 12.5
* PRT1067 (KLTSCATNASICGDEARCVRTEKAAYCACRSGFHTVPGQPGCQ; listed as Homo sapiens) | 25

====

Items are presented alongside their recorded MIC against K. pneumonia.
- System: Klebsiella pneumonia
- Experiment Summary: MIC against Gram-negative bacteria: Klebsiella pneumonia
- Format: cell-based
- Condition Set: Klebsiella pneumonia; 5×10^5 CFU/mL; 10 h cultivation at 37° C.
Assay Endpoint: MIC against K. pneumonia (µg/mL)

* PRT1390 (EEDCLDPMCSNHGICVKGECHCSTGWGGVNCET; listed as Homo sapiens) | 50
* PRT1370 (GVRSCPGDCRGRGRCESGRCMCWPGYTGRDC; listed as Homo sapiens) | 50
* PRT1479 (AKNECHPERTDGCQHFCLPGQESYTCSCAQGYRLGEDHKQCV; listed as Homo sapiens) | 100
* PRT1430 (DINECAHADPCFPGSSCINTMPGFHCEACPRGYKGTQVS; listed as Homo sapiens) | 12.5
* PRT1421 (ATQSCNDLCEHFCVPNPDQPGSYSCMCETGYRLAADQHRCE; listed as Homo sapiens) | 50
* PRT1376 (ATRMCPADCRGRGRCVQGVCLCHVGYGGEDCG; listed as Homo sapiens) | 12.5
* PRT1353 (SDMSCPNDCHQHGRCVNGMCVCDDGYTGEDCR; listed as Homo sapiens) | 25
* PRT1440 (DKDECSKDNGGCQHECVNTMGSYMCQCRNGFVLHDNKHDCK; listed as Homo sapiens) | 25
* PRT1451 (EARWCSECHSNATCTEDEAVTTCTCQEGFTGDGLTCV; listed as Homo sapiens) | 12.5
* PRT1384 (STRTCPRDCRGRGRCEDGECICDTGYSGDDC; listed as Homo sapiens) | 50
* PRT1359 (SREICPVPCSEEHGTCVDGLCVCHDGFAGDDCN; listed as Homo sapiens) | 12.5
* PRT1433 (PPRRCDSNPCFRGVQCTDSRDGFQCGPCPEGYTGNGITCI; listed as Homo sapiens) | 12.5
* PRT1367 (YPACPENCSGHGECVRGVCQCHEDFMSEDCS; listed as Homo sapiens) | 12.5
* PRT1346 (EVNECQSNPCLNNAVCEDQVGGFLCKCPPGFLGTRCG; listed as Homo sapiens) | 25
* PRT1457 (CQCHGHADNCDTTSQPYRCLCSQESFTEGLHCDRCLPLYNDKPFRQGDQVYAFNCKP; listed as Homo sapiens) | 100
* PRT1403 (SVVECPRNCHGNGECVSGTCHCFPGFLGPDCS; listed as Homo sapiens) | 12.5
* PRT1388 (RDSCPVLCGGNGEYEKGHCVCRHGWKGPECDV; listed as Homo sapiens) | 12.5
* PRT1397 (PMNQCIDPSCGGHGSCIDGNCVCSAGYKGEHCE; listed as Homo sapiens) | 50
* PRT1453 (DVDECAEPGLSHCHALATCVNVVGSYLCVCPAGYRGDGWHCE; listed as Homo sapiens) | 50
